Molecular target: Acetylcholinesterase (Rattus norvegicus, UniProt P37136)
Sequence (P37136 whole entry): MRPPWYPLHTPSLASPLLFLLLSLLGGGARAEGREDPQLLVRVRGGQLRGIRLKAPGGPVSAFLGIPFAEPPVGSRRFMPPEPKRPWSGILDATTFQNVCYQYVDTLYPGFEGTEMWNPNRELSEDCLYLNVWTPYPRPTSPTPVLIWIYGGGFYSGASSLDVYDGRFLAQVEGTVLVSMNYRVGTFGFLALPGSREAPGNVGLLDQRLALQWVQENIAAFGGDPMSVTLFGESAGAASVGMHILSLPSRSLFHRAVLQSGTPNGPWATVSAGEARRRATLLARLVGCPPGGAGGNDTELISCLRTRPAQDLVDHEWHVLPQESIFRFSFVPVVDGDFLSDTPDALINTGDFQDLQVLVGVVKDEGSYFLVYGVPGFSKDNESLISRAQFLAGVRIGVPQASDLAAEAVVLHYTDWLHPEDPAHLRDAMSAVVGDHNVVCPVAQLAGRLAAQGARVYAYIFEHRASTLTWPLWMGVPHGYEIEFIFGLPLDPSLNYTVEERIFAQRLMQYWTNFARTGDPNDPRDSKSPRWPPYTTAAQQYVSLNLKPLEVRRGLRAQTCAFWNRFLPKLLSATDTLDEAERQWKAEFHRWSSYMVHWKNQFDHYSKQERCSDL
MEASUREMENT_TYPE: IC50 (µM)

[[record]]
compound = "CCCNC1CCCc2nc3ccccc3c(N)c21 (stereo unspecified)"
measurement_type = "IC50"
measure_unit = "µM"
comparator = "="
assay_result = 12.5

[[record]]
compound = "CCCCOC1CCCc2nc3ccccc3c(N)c21 (stereo unspecified)"
measurement_type = "IC50"
measure_unit = "µM"
comparator = "="
assay_result = 1.9

[[record]]
compound = "c1ccc(C2=NC3CCCc4nc5ccccc5c(c43)N2)cc1 (stereo unspecified)"
measurement_type = "IC50"
measure_unit = "µM"
comparator = ">"
assay_result = 100

[[record]]
compound = "COc1ccc(C2CCCc3nc4ccccc4c(N)c32)c(OC)c1 (stereo unspecified)"
measurement_type = "IC50"
measure_unit = "µM"
comparator = "="
assay_result = 4.82

[[record]]
compound = "CCCCNC1CCCc2nc3ccccc3c(N)c21 (stereo unspecified)"
measurement_type = "IC50"
measure_unit = "µM"
comparator = "="
assay_result = 48.8

[[record]]
compound = "Nc1c2c(nc3ccccc13)CCCC2Nn1cccc1 (stereo unspecified)"
measurement_type = "IC50"
measure_unit = "µM"
comparator = "="
assay_result = 8.16

[[record]]
compound = "[N-]=[N+]=NC1CCCc2nc3ccccc3c(N)c21 (stereo unspecified)"
measurement_type = "IC50"
measure_unit = "µM"
comparator = "="
assay_result = 11.8

[[record]]
compound = "Nc1c2c(nc3ccccc13)CCCC2N (stereo unspecified)"
measurement_type = "IC50"
measure_unit = "µM"
comparator = "="
assay_result = 8.59

[[record]]
compound = "Nc1c2c(nc3ccccc13)CCCC2N1CCOCC1 (stereo unspecified)"
measurement_type = "IC50"
measure_unit = "µM"
comparator = ">"
assay_result = 100

[[record]]
compound = "CCCCCC(=O)NC1CCCc2nc3ccccc3c(N)c21 (stereo unspecified)"
measurement_type = "IC50"
measure_unit = "µM"
comparator = "="
assay_result = 51.8

[[record]]
compound = "Nc1c2c(nc3ccccc13)CCCC2NCc1ccccc1 (stereo unspecified)"
measurement_type = "IC50"
measure_unit = "µM"
comparator = "="
assay_result = 20.1

[[record]]
compound = "CN1CCN(C2CCCc3nc4ccccc4c(N)c32)CC1 (stereo unspecified)"
measurement_type = "IC50"
measure_unit = "µM"
comparator = ">"
assay_result = 100

[[record]]
compound = "CCCOC1CCCc2nc3ccccc3c(N)c21 (stereo unspecified)"
measurement_type = "IC50"
measure_unit = "µM"
comparator = "="
assay_result = 0.193

[[record]]
compound = "CCNC1CCCc2nc3ccccc3c(N)c21 (stereo unspecified)"
measurement_type = "IC50"
measure_unit = "µM"
comparator = "="
assay_result = 4.79

[[record]]
compound = "CC1=NC2CCCc3nc4ccccc4c(c32)N1 (stereo unspecified)"
measurement_type = "IC50"
measure_unit = "µM"
comparator = ">"
assay_result = 100

[[record]]
compound = "Nc1c2c(nc3ccccc13)CCCC2O (stereo unspecified) [VELNACRINE]"
measurement_type = "IC50"
measure_unit = "µM"
comparator = "="
assay_result = 3.64

[[record]]
compound = "COC1CCCc2nc3ccccc3c(N)c21 (stereo unspecified)"
measurement_type = "IC50"
measure_unit = "µM"
comparator = "="
assay_result = 4.74

[[record]]
compound = "Nc1c2c(nc3ccccc13)CCCC2c1cccs1 (stereo unspecified)"
measurement_type = "IC50"
measure_unit = "µM"
comparator = "="
assay_result = 0.49

[[record]]
compound = "Nc1c2c(nc3ccccc13)CCCC2N1CCC(c2ccccc2)CC1 (stereo unspecified)"
measurement_type = "IC50"
measure_unit = "µM"
comparator = ">"
assay_result = 100

[[record]]
compound = "Nc1c2c(nc3ccccc13)CCCC2N1CCN(c2ccccc2)CC1 (stereo unspecified)"
measurement_type = "IC50"
measure_unit = "µM"
comparator = ">"
assay_result = 100

[[record]]
compound = "Nc1c2c(nc3ccccc13)CCCC2NCCc1ccccc1 (stereo unspecified)"
measurement_type = "IC50"
measure_unit = "µM"
comparator = "="
assay_result = 18.6

[[record]]
compound = "Nc1c2c(nc3ccccc13)CCCC2N1CCCC1 (stereo unspecified)"
measurement_type = "IC50"
measure_unit = "µM"
comparator = "="
assay_result = 18

[[record]]
compound = "CCOC1CCCc2nc3ccccc3c(N)c21 (stereo unspecified)"
measurement_type = "IC50"
measure_unit = "µM"
comparator = "="
assay_result = 0.298

[[record]]
compound = "Nc1c2c(nc3ccccc13)CCCC2N1CCCCC1 (stereo unspecified)"
measurement_type = "IC50"
measure_unit = "µM"
comparator = "="
assay_result = 8.4

[[record]]
compound = "CC(=O)NC1CCCc2nc3ccccc3c(N)c21 (stereo unspecified)"
measurement_type = "IC50"
measure_unit = "µM"
comparator = "="
assay_result = 64.9

[[record]]
compound = "COc1ccc(CNC2CCCc3nc4ccccc4c(N)c32)cc1OC (stereo unspecified)"
measurement_type = "IC50"
measure_unit = "µM"
comparator = "="
assay_result = 38.4

